- System: CRL-7250
- protocolDescription: Cytotoxic Profiling of Annotated Libraries Using Quantitative High-Throughput Screening (AID 1296008); further: on the % scale 0 is the no-effect control and ±100 the full control effect; nearly all actives have a fitted effect of over 60% in size
- assayConditions: Five cell lines viability, CellTiter-Glo ATP luminescence, 48-72 h; hits give low values
Inconclusive results are not listed.
Below, each entry is listed alongside its reported max response.
Report only the number, with the unit % understood.

// worked examples, max response included
Cc1occc1C(=O)n1ccnc1; -1.62
COC(=O)C1=COC(O[C@@H]2O[C@H](CO)[C@@H](O)[C@H](O)[C@H]2O)C2C(C)C(=O)CC12 (stereo not given in full); -2.22
Cc1c(O)cc2c(c1O)COC1(O)CCCOC21 (stereo not given); -4.56
Cc1cc(C)c2nc(-c3ccccn3)cc(C(=O)Nc3ccc(S(=O)(=O)Nc4onc(C)c4C)cc3)c2c1; -3.09
COC(=O)C1(O)C(OC(C)=O)CCC2C3(CC(c4ccoc4)OC3=O)C(C)=CCC21C(=O)OC (stereo not given); -2.77
CN1CCN(C2=Nc3ccccc3Nc3ccc(O)cc32)CC1; 2.24

Identify the reported max response for the following entry. CC1=C(CO)C2(C)CCCC(C)(C)C2C(O)C1O (stereo not given) -6.52

Identify the reported max response for the following entry. C[C@H]1CC(=O)C2=C(C1)C(O)C(O)[C@@]1(O)[C@H]2C(=O)c2cccc(O)c2[C@@H]1O (stereo not given in full) -10.1

Identify the reported max response for the following entry. COc1cc2c(cc1O)C(c1ccc(O)cc1)C(C)C(C)C2 (stereo not given) -22.8

Identify the reported max response for the following entry. C/C(=C/CO)CC[C@H]1[C@]2(C)C[C@H](O)CC(C)(C)[C@H]2CC[C@]1(C)O -3.5
